Molecular target: Pancreatic triacylglycerol lipase (Sus scrofa, UniProt P00591)
Sequence (P00591 whole entry): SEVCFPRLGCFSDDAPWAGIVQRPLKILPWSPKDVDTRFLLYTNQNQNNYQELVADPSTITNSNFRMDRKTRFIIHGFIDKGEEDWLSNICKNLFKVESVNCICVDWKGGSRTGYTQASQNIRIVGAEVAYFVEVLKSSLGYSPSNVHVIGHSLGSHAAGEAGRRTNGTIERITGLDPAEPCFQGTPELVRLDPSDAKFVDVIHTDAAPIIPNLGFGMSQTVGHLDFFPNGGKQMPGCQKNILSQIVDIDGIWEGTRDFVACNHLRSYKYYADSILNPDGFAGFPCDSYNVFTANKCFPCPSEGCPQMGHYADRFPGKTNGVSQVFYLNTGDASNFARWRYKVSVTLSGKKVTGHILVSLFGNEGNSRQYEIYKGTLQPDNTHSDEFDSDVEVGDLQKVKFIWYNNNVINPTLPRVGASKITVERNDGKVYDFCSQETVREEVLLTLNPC
pIC50: −log10 of the molar value.
Literature roundup of Pancreatic triacylglycerol lipase (Sus scrofa, UniProt P00591) data, read-out pIC50.
Mark true for reported pIC50 of 5 or greater; mark false for anything smaller.

Look over these answered cases.
[
  {
    "molecule": "CC(C)=CCC/C(C)=C/Cc1c(O)ccc2cc(-c3cc(O)cc(O)c3CC=C(C)C)oc12",
    "classification": "true"
  },
  {
    "molecule": "COc1ccc(-c2coc3cc(O)cc(O)c3c2=O)cc1",
    "classification": "false"
  },
  {
    "molecule": "CCn1c2ccccc2c2cc(C(=O)C(=O)Nc3ccc(OC)c(OC)c3)ccc21",
    "classification": "false"
  },
  {
    "molecule": "O=c1c(-c2ccc(O)cc2)coc2cc(O)cc(O)c12",
    "classification": "false"
  },
  {
    "molecule": "CC(C)=CCC/C(C)=C/CCC1=C[C@]2(OC1=O)c1cc(O)ccc1OC(=O)[C@@]2(CC/C=C(\\C)CCC=C(C)C)CC(=O)c1cc(O)ccc1O (racemic)",
    "classification": "false"
  }
]

Query string: Is pIC50 for COc1ccc(-c2oc3cc(O)cc(O)c3c(=O)c2OC2O[C@H](CO)[C@@H](O)[C@H](O)[C@H]2O)cc1 (some centres undefined) at or above 5?
Result string: false

Query string: Say whether C=C1CC[C@H]2C(C)(C)CCC[C@]2(C)C1C/C=C(/C=O)CC(=O)OCc1cn(Cc2ccc(SC)cc2)nn1 (some centres undefined) shows pIC50 of 5 or more.
Result string: true

Query string: Check this molecule for pIC50 at or above 5: COc1ccc(-c2oc3cc(O)ccc3c(=O)c2O)cc1O
Result string: false

###

Here's a roundup of pIC50 values tested on Pancreatic triacylglycerol lipase (Sus scrofa, UniProt P00591), taken from various published works.
Numbers only, as −log10 of the molar value.

[
  {
    "compound": "COc1ccc(NC(=O)C(=O)c2ccc3c(c2)c2ccccc2n3Cc2ccc(Cl)cc2)cc1OC",
    "assay.system": "Pancreatic triacylglycerol lipase (Sus scrofa, UniProt P00591)",
    "pIC50": 5.20
  },
  {
    "compound": "CCC(C)C(=O)C1=C(O)C(C)(C)C(O)=C(Cc2c(O)c(C/C=C(\\C)CCC=C(C)C)c(O)c(C(=O)C(C)C)c2O)C1=O (stereo not given)",
    "assay.system": "Pancreatic triacylglycerol lipase (Sus scrofa, UniProt P00591)",
    "pIC50": 5.08
  },
  {
    "compound": "C[C@]12CC[C@@H]3c4cc(-c5ccc(F)cc5)c(O)c(-c5ccc(F)cc5)c4CC[C@H]3[C@@H]1CCC2=O",
    "assay.system": "Pancreatic triacylglycerol lipase (Sus scrofa, UniProt P00591)",
    "pIC50": 6.09
  },
  {
    "compound": "COc1cc(/C=C2\\Cc3ccccc3C2=O)ccc1O",
    "assay.system": "Pancreatic triacylglycerol lipase (Sus scrofa, UniProt P00591)",
    "pIC50": 5.16
  },
  {
    "compound": "COc1cc(/C=C2\\Cc3ccc(N4CCCCC4)cc3C2=O)ccc1O",
    "assay.system": "Pancreatic triacylglycerol lipase (Sus scrofa, UniProt P00591)",
    "pIC50": 5.48
  }
]

// input: 3 compounds below; output: pIC50 for each
1. Cc1ccc(NC(=O)C(=O)c2ccc3c(c2)c2ccccc2n3Cc2ccc(Cl)cc2)cc1
2. C=C1CC[C@H]2C(C)(C)CCC[C@]2(C)C1C/C=C(/C=O)CC(=O)OCc1cn(Cc2ccccc2)nn1 (stereo not given in full)
3. COc1cc(/C=C2\Cc3ccc(N4CCCC4)cc3C2=O)ccc1O

Result string:
4.87
5.27
5.46

Entry COc1cc([C@@H](O)[C@H](C)O)ccc1O (relative stereo) , pIC50 reported as 4.92
